Data origin, for the record: PubChem BioAssay (EPA / NIEHS)

Read-out: Protein phosphatase 2A (PPP2R4), PTPA (gene 5524)
Assay: LTEA_HepaRG_PPP2R4: Life Technologies and Expression Analysis (LTEA) Assay for Protein phosphatase 2A (PPP2R4) using HepaRG (AID 2283522)
Details: mRNA level, 48 h; actives raise or lower the signal
The source made the active and inactive calls. How the source made its calls: active means hit-call score of the fitted dose curve at least 0.9, where 1 is the maximum; inactive means score below 0.9.
PROPERTY_MEASURED: AC50

structure_smiles_string=c1ccc2c(c1)ccc1ccccc12 property_measured=AC50 value_reported=inactive
structure_smiles_string=CC#C[C@]1(O)CC[C@H]2[C@@H]3CCC4=CC(=O)CCC4=C3[C@@H](c3ccc(N(C)C)cc3)C[C@@]21C property_measured=AC50 value_reported="13.8 µM (active)"
structure_smiles_string=CCCCCCCCCCCCc1ccccc1S(=O)(=O)O property_measured=AC50 value_reported="21.2 µM (active)"
structure_smiles_string=CCCOC(=O)c1ccc(O)cc1 property_measured=AC50 value_reported=inactive
